system.under.test: recombinant human His6-GSK-3β (Homo sapiens, UniProt P49841)
Construct: His6; purchased EMD Biosciences
Sequence (P49841 whole entry): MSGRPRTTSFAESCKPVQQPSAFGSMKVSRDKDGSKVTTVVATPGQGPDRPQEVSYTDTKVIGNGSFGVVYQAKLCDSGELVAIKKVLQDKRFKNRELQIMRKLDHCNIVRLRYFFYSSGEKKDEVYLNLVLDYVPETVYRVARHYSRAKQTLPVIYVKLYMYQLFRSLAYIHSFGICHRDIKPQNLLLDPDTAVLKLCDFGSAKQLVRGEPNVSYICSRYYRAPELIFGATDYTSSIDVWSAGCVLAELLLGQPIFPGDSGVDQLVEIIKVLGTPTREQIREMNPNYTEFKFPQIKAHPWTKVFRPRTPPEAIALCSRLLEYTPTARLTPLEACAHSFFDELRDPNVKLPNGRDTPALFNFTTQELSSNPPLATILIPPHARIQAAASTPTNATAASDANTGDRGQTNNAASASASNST
protocol: GSK-3β kinase assay, [γ32P] transfer to primed glycogen synthase peptide;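 further: phosphate incorporation quantified by liquid scintillation counting of the filters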
Assay type: biochemical
reported.conditions: 10 μM ATP; 10 μM pGSM peptide; 30 minutes at 30° C.; read-out: IC50 (nM), GSK-3β inhibition
In this section, each of the compounds is paired with its reported IC50.
// return numeric value only (unit: nM, not printed)

Examples from the recorded data:
In [3]: df
Out[3]:
                                smiles_data  readout_kind  numeric_value
0  Cn1cc(C2=C(c3coc4ccccc34)C(=O)NC2=O)c2cc(O)ccc21          IC50            690
1  C=CCOc1ccc2c(C3=C(c4cn(C)c5ccc(Br)cc45)C(=O)NC3=O)coc2c1          IC50           48.3
2  Cn1cc(C2=C(c3coc4ccc(F)cc34)C(=O)NC2=O)c2cc(Cl)ccc21          IC50           34.5
3  Cn1cc(C2=C(c3coc4ccccc34)C(=O)NC2=O)c2ccccc21          IC50             35
4  Cn1cc(C2=C(c3coc4ccccc34)C(=O)NC2=O)c2cccc(O)c21          IC50             55
5  O=C1NC(=O)C(c2cn(CCCO)c3ccc(OCc4ccccc4)cc23)=C1c1coc2ccccc12          IC50            220

Let us examine a further case.
// COc1cccc2c(C3=C(c4cn(C)c5cc(I)c(F)cc45)C(=O)NC3=O)coc12 : IC50 value = 247
